biological target: mineralocorticoid receptor (Homo sapiens); assay: Antimineralocorticoid action by transactivation test (MDCK reporter cells); assay type: cell-based; design: expressed in transfected cells; host or cells: MDCK cells; conditions: MDCK, read-out: Mineralocorticoid receptor Antagonism efficacy;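 note: percent inhibition of the aldosterone-stimulated reporter signal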
Sequence (P08235 whole entry): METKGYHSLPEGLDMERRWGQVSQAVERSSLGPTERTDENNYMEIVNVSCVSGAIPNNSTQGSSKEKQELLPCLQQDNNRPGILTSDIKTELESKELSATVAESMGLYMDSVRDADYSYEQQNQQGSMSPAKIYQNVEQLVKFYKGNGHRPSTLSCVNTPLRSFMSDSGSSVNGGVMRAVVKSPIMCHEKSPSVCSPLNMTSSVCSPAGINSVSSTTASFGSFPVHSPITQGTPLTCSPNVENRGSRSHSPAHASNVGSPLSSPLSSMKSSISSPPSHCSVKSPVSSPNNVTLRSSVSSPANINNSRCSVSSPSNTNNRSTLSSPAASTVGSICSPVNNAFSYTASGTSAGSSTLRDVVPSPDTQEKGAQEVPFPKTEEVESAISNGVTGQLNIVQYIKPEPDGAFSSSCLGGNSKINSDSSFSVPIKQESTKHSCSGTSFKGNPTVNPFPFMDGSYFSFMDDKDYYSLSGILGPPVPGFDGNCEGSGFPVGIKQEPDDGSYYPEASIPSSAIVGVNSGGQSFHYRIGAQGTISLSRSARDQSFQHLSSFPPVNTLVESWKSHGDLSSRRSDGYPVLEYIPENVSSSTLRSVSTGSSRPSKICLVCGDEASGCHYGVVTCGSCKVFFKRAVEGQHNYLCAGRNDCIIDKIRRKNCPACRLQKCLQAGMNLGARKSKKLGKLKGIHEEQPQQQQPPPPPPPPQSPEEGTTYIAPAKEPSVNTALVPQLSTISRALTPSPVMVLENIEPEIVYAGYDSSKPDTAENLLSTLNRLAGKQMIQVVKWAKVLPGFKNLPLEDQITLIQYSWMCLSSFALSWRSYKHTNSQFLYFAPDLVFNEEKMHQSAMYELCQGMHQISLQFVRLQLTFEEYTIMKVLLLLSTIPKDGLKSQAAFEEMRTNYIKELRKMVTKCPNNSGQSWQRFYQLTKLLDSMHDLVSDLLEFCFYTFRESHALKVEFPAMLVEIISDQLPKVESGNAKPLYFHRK
Task for the reader: assign each of the following compounds its reported Emax.
Answers are plain numbers, in %.

Below, each entry is followed by its recorded Emax result.
# compound, study_system, value_observed
rows = [
    ("CC[C@]12CC[C@H]3[C@@H](C=CC4=CC(=O)CC[C@@H]43)[C@@H]1[C@@H]1C[C@@H]1[C@@]21C=CC(=O)O1 [Example 3]", "mineralocorticoid receptor (Homo sapiens)", 97.6),
    ("C[C@]12CC[C@H]3[C@@H](CCC4=CC(=O)CC[C@@H]43)[C@@H]1[C@H]1C[C@H]1[C@@]21C=CC(=O)O1 [Example 12]", "mineralocorticoid receptor (Homo sapiens)", 71.4),
    ("C[C@@H]1CC2=CC(=O)CC[C@@H]2[C@H]2CC[C@@]3(C)[C@@H]([C@@H]4C[C@@H]4[C@@]34C=CC(=O)O4)[C@@H]21 [Example 23A]", "mineralocorticoid receptor (Homo sapiens)", 105),
    ("CC[C@]12CC[C@H]3[C@H]([C@@H]1[C@@H]1C[C@@H]1[C@@]21C=CC(=O)O1)[C@H](C)CC1=CC(=O)CC[C@@H]13 [Example 4A]", "mineralocorticoid receptor (Homo sapiens)", 99.9),
    ("C=C[C@@H]1CC2=CC(=O)CC[C@@H]2[C@H]2CC[C@@]3(C)[C@@H]([C@H]4C[C@H]4[C@@]34C=CC(=O)O4)[C@@H]21 [Example 16A]", "mineralocorticoid receptor (Homo sapiens)", 103),
    ("C=C[C@@H]1CC2=CC(=O)CC[C@@H]2[C@H]2CC[C@@]3(CC)[C@@H]([C@@H]4C[C@@H]4[C@@]34C=CC(=O)O4)[C@@H]21 [Example 6A]", "mineralocorticoid receptor (Homo sapiens)", 102),
    ("C=C[C@@H]1CC2=CC(=O)CC[C@@H]2[C@H]2CC[C@@]3(C)[C@@H]([C@@H]4C[C@@H]4[C@@]34C=CC(=O)O4)[C@@H]21 [Example 25A]", "mineralocorticoid receptor (Homo sapiens)", 84.1),
    ("CC[C@]12CC[C@H]3[C@@H]([C@H]4C[C@H]4C4=CC(=O)CC[C@@H]43)[C@@H]1[C@@H]1C[C@@H]1[C@@]21C=CC(=O)O1 [Example 1]", "mineralocorticoid receptor (Homo sapiens)", 79.5),
    ("C[C@]12CC[C@H]3[C@@H](CCC4=C(Cl)C(=O)CC[C@@H]43)[C@@H]1[C@H]1C[C@H]1[C@@]21C=CC(=O)O1 [Example 18]", "mineralocorticoid receptor (Homo sapiens)", 37.3),
    ("C[C@]12CC[C@H]3[C@@H](CCC4=C(Cl)C(=O)CC[C@@H]43)[C@@H]1[C@@H]1C[C@@H]1[C@@]21C=CC(=O)O1 [Example 27]", "mineralocorticoid receptor (Homo sapiens)", 5),
]

For the 7 compounds below, give their Emax values.
1. C[C@]12CC[C@H]3[C@H]([C@@H]1[C@H]1C[C@H]1[C@@]21C=CC(=O)O1)[C@H](C1CC1)CC1=CC(=O)CC[C@@H]13 [Example 17A]
2. C[C@]12CCC(=O)C=C1[C@@H]1C[C@@H]1[C@H]1[C@@H]3[C@@H]4C[C@@H]4[C@@]4(CCC(=O)O4)[C@@]3(C)CC[C@@H]12 [A, reference compound]
3. CC[C@]12CC[C@H]3[C@H]([C@@H]1[C@@H]1C[C@@H]1[C@@]21C=CC(=O)O1)[C@H](C1CC1)CC1=CC(=O)CC[C@@H]13 [Example 7A]
4. C[C@]12CC[C@H]3[C@@H](CCC4=CC(=O)CC[C@@H]43)[C@@H]1[C@@H]1C[C@@H]1[C@@]21C=CC(=O)O1 [Example 19]
5. CC[C@@H]1CC2=CC(=O)CC[C@@H]2[C@H]2CC[C@@]3(C)[C@@H]([C@@H]4C[C@@H]4[C@@]34C=CC(=O)O4)[C@H]12 [Example 24A]
6. C[C@@H]1CC2=CC(=O)CC[C@@H]2[C@H]2CC[C@@]3(C)[C@@H]([C@H]4C[C@H]4[C@@]34C=CC(=O)O4)[C@@H]21 [Example 14A]
7. C[C@]12CC[C@H]3[C@@H](CC4(CC4)C4=CC(=O)CC[C@@H]43)[C@@H]1[C@@H]1C[C@@H]1[C@@]21C=CC(=O)O1 [Example 22]

Response line:
1: 115; 2: 64.1; 3: 102; 4: 92.8; 5: 81.1; 6: 83; 7: 91.2
